Target: T1, Cyno PD-L2-Fc (cynomolgus, UniProt A0A2K5U5Z4 20-220)
T1 construct: also called cynomolgus PD-L2; not shown: Fc
T1 sequence: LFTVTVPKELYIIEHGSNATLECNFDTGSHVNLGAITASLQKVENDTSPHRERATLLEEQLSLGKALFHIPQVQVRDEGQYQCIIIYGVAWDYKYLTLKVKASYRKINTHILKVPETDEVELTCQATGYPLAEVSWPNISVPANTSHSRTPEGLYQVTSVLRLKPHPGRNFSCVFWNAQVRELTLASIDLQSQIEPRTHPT
Assay: ForteBio, IgG, avid
endpoint: Kd (nM)
Expressed in nM, but write only the number.

I am curious: what Kd value has been reported for BiPDL3-24 (antibody, V domains shown, IgG; also called ADI-37465; 37465) VH: QVQLQQWGAGLLKPSETLSLTCAVYGGSLSGYPWSWIRQPPGKGLEWIGETDVSGWTDYNPSLKSRVTISVDTSKNQFSLKLSSVTAADTAVYYCARDGRRMGTPSFDIWGQGTMVTVSS VL: DIQMTQSPSSVSASVGDRVTITCRASQGISNFLAWYQQKPGKAPKLLIYAASSLQSGVPSRFSGSGSGTDFTLTISSLQPEDFATYYCQKAVYFPPTFGGGTKVEIK ?
0.605
